# TARGET_OR_SYSTEM: N-acylethanolamine-hydrolyzing acid amidase (Rattus norvegicus) (UniProt Q5KTC7)
# Sequence (whole entry): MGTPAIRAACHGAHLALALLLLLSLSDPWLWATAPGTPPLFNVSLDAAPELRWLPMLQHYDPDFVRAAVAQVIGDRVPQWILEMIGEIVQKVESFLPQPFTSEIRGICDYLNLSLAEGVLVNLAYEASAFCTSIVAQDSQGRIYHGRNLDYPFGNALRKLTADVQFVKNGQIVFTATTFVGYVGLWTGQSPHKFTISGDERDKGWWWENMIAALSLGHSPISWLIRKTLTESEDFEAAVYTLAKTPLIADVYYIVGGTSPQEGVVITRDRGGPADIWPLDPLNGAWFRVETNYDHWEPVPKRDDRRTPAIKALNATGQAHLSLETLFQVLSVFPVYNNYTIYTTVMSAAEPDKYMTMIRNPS
# TEST_NAME: Inhibition of Wistar/ST rat lung NAAA assessed as residual activity for conversion of [14C]PEA to [14C]palmitic acid at 100 uM after 20 mins relative to control
Mark Y for Activity under 40%, N if at or over.

Bench note: check whether CCCCCCCCCCCCOC(=O)CN shows Activity below 40%
Y

Bench note: check whether CCCCCCCCCCCCCOC(=O)CN shows Activity below 40%
Y

Bench note: check whether CCCCCCCCCCCC(=O)OCCN shows Activity below 40%
N

Bench note: check whether CCCCCCCCCCCCCCCCOCCN shows Activity below 40%
N

Bench note: check whether CCCCCCCCCCCCCC(=O)OCCN shows Activity below 40%
N

---

# TARGET_OR_SYSTEM: N-acylethanolamine-hydrolyzing acid amidase (Rattus norvegicus) (UniProt Q5KTC7)
# TEST_NAME: Inhibition of Wistar/ST rat lung NAAA assessed as residual activity for conversion of [14C]PEA to [14C]palmitic acid at 100 uM after 20 mins relative to control
Mark fulfilled for Activity under 60%, not fulfilled if at or over.

Bench note: check whether CCCCCCCCCCCCCC(=O)OCCCN shows Activity below 60%
fulfilled

Bench note: check whether CCCCCCCCCCCCOC(=O)CCN shows Activity below 60%
fulfilled

Bench note: check whether CCCCCCCCCCCCCCOCCCN shows Activity below 60%
not fulfilled

Bench note: check whether CCCCCCCCCC(=O)OCCCN shows Activity below 60%
fulfilled

Bench note: check whether CCCCCCCCCCCC(=O)OCCCN shows Activity below 60%
not fulfilled

Bench note: check whether CCCCCCCCCCCCCCOC(=O)CCN shows Activity below 60%
fulfilled

Bench note: check whether CCCCCCCCCCCCCCCOC(=O)CN shows Activity below 60%
fulfilled

Bench note: check whether CCCCCCCCCCCCOCCCN shows Activity below 60%
not fulfilled

Bench note: check whether CCCCCCCCCCCCCOC(=O)CCN shows Activity below 60%
fulfilled

Bench note: check whether CCCCCCCCCCCCCCCC(=O)OCCN shows Activity below 60%
fulfilled

Bench note: check whether CCCCCCCCCCCCCCCCOCCCN shows Activity below 60%
not fulfilled

Bench note: check whether CCCCCCCCCC(=O)OCCN shows Activity below 60%
not fulfilled

Bench note: check whether CCCCCCCCCCCCCCOC(=O)CN shows Activity below 60%
fulfilled

Bench note: check whether CCCCCCCCCCCCCCOCCN shows Activity below 60%
fulfilled

Bench note: check whether CCCCCCCCCCCCCCCC(=O)OCCCN shows Activity below 60%
fulfilled

Bench note: check whether CCCCCCCCCCCCCCCCOC(=O)CN shows Activity below 60%
not fulfilled
